# protocol_summary: chemical genetic growth profiling, strain panel (AID 1159580);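 further: tested at 20 µM; growth read once vehicle control cultures reached saturation at 30 °C; 1 = growth at the plate median or of vehicle wells; lower values mean less growth of the strain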
# measurement_parameters: S. cerevisiae deletion strains, growth OD, locus YJR016C, strain ILV3, active compounds read low
The campaign covered roughly 5,500 compounds. About 2,000 (36%) were called active. Roughly 18% stayed inconclusive and do not appear here. Some of the results follow.
measured_quantity: normalized growth
# answer = number (no unit)

A selection of reference data follows.
O=C(/C=C/c1ccc2c(c1)OCO2)Nc1ccc(Br)cc1 | 0.958
C/C(Cc1nnn(-c2cc(C)on2)n1)=N/OC(=O)Nc1ccc(Cl)cc1 | 0.977

Which measured normalized growth value corresponds to "COc1cccc(C2CCN(C(=O)c3cccc4ccccc34)CC2)c1" ?
0.99

Which measured normalized growth value corresponds to CCOC(=O)C1C(c2c(F)cccc2Cl)C(C(=O)OCC)C(O)(C(F)(F)F)NC1(O)C(F)(F)F (stereo not drawn) ?
0.996

Which measured normalized growth value corresponds to "CCCN(CCC)C(=S)NC(=O)c1cccc([N+](=O)[O-])c1" ?
0.968

Which measured normalized growth value corresponds to "CC(C)(C)c1ccc(N/N=C(\C#N)C(N)=O)cc1" ?
0.101

Which measured normalized growth value corresponds to "N#C/C(=N/Nc1ccc(F)cc1)S(=O)(=O)c1ccc(Cl)cc1" ?
0.977

Which measured normalized growth value corresponds to "COc1cc(Cl)ccc1N/N=C(/C#N)C(N)=O" ?
0.0991
